- Test system: KASUMI-1
- procedure_details: In vitro anti-proliferation assay (ATPlite) in p53 mutant cell line KASUMI-1
- Assay type: cell-based
- conditions: Cell line KASUMI-1, Mutation R248Q, about 72 hours incubation
Reported values of pIC50 for individual entries
Kindly note that pIC50 refers to -log10 of the concentration in mol/L and answer with the value alone.

// solved cases for pIC50 follow
COC[C@]1(CO)C(=O)[C@@H]2CC[N@@]1[C@@H](C)C2    5.59
COC[C@@]1(CO)C(=O)[C@@H]2CC[N@@]1[C@@H](C)C2    5.70

Incoming: # input molecule: COC[C@]1(CO)C(=O)[C@H]2CC[N@]1[C@H](C)C2 ; wanted: its pIC50
Outgoing: 6.00

Incoming: # input molecule: COC[C@@]1(CO)C(=O)[C@H]2CC[N@]1[C@H](C)C2 ; wanted: its pIC50
Outgoing: 5.12

----------
Reported values of IC50 for individual entries
- System: CEM(R248Q)
- procedure_details: In vitro anti-proliferation assay (ATPlite) in p53 mutant cell line CEM(R248Q)
- Type: cell-based
- conditions: Mutation R175H, about 72 hours incubation
The reply should contain only the number, in nM.

COC[C@]1(CO)C(=O)[C@H]2CC[N@]1[C@H](C)C2    560
COC[C@@]1(CO)C(=O)C2CCN1CC2 [ARP-246-S, reference compound]    495
COC[C@@]1(CO)C(=O)[C@H]2CC[N@]1[C@H](C)C2    4500
COC[C@]1(CO)C(=O)[C@@H]2CC[N@@]1[C@@H](C)C2    1600

Incoming: # input compound: COC[C@@]1(CO)C(=O)[C@@H]2CC[N@@]1[C@@H](C)C2 ; wanted: its IC50
Outgoing: 690
